Data credit: the Immune Epitope Database (IEDB)

molecular target: HLA-B*39:01; assay: IEDB peptide-MHC binding, purified MHC/direct/fluorescence; filed as Kd, often an IC50 or EC50 that approximates it; bounds were set here for any values at or beyond the usual limits of such assays; details: source organism: Ravn virus - Ravn, Kenya, 1987
pKd: −log10 of the molar value.

{"columns": ["PRIMARY_SEQUENCE", "pKd"],
 "data": [
  ["LFLSFCSLF", "≤ 4.70"]
]}

* * *

Quick reference for pKd among some sequences
biological target: HLA-A*02:01; test: IEDB peptide-MHC binding, purified MHC/competitive/radioactivity; filed as Kd, often an IC50 or EC50 that approximates it; bounds were set here for any values at or beyond the usual limits of such assays; conditions: source organism: Lassa virus Josiah
pKd: −log10 of the molar value.
READOUT_TYPE: pKd

{"columns": ["PRIMARY_SEQUENCE", "EXPERIMENTAL_RESULT"],
 "data": [
  ["LVGLVTFLL", 6.19],
  ["IMTSYQYLII", 6.00],
  ["GLVGLVTFLL", 7.31],
  ["RLTQSHPIL", 5.78]
]}

* * *

biological target: HLA-B*14:02; test: IEDB peptide-MHC binding, purified MHC/competitive/fluorescence; bounds were set here for any values at or beyond the usual limits of such assays; conditions: source organism: Human immunodeficiency virus 1
READOUT_TYPE: IC50

{"columns": ["PRIMARY_SEQUENCE", "READOUT_TYPE", "EXPERIMENTAL_RESULT"],
 "data": [
  ["KHYMLKHL", "IC50", "≥ 20 µM"]
]}

* * *

molecular target: HLA-A*02:19; assay: IEDB peptide-MHC binding, purified MHC/direct/fluorescence; filed as Kd, often an IC50 or EC50 that approximates it; bounds were set here for any values at or beyond the usual limits of such assays; conditions: source organism: Choclo virus
READOUT_TYPE: Kd

{"columns": ["PRIMARY_SEQUENCE", "READOUT_TYPE", "EXPERIMENTAL_RESULT"],
 "data": [
  ["PELGAFFAI", "Kd", "≥ 20 µM"]
]}

* * *

target: HLA-A*24:03; experiment: IEDB peptide-MHC binding, purified MHC/competitive/fluorescence; filed as Kd, often an IC50 or EC50 that approximates it; bounds were set here for any values at or beyond the usual limits of such assays; conditions: source organism: Escherichia coli str. K-12 substr. MG1655
pKd: −log10 of the molar value.

{"columns": ["PRIMARY_SEQUENCE", "TARGET", "pKd"],
 "data": [
  ["IYPGVNHGF", "HLA-A*24:03", 9.52]
]}

* * *

molecular target: HLA-A*30:01; assay: IEDB peptide-MHC binding, purified MHC/competitive/fluorescence; filed as Kd, often an IC50 or EC50 that approximates it; bounds were set here for any values at or beyond the usual limits of such assays; conditions: source organism: Vaccinia virus Copenhagen

{"columns": ["PRIMARY_SEQUENCE", "TARGET", "Kd"],
 "data": [
  ["LEYGANYFL", "HLA-A*30:01", "≥ 20 µM"]
]}

* * *

target: HLA-A*69:01; test: IEDB peptide-MHC binding, purified MHC/direct/fluorescence; filed as Kd, often an IC50 or EC50 that approximates it; bounds were set here for any values at or beyond the usual limits of such assays; conditions: source organism: Salmonella enterica
READOUT_TYPE: Kd

{"columns": ["PRIMARY_SEQUENCE", "READOUT_TYPE", "EXPERIMENTAL_RESULT"],
 "data": [
  ["WTDLYTSMS", "Kd", "≥ 20 µM"]
]}
